- test.system: BTK kinase (Homo sapiens (Human))
- Sequence (Q06187 whole entry): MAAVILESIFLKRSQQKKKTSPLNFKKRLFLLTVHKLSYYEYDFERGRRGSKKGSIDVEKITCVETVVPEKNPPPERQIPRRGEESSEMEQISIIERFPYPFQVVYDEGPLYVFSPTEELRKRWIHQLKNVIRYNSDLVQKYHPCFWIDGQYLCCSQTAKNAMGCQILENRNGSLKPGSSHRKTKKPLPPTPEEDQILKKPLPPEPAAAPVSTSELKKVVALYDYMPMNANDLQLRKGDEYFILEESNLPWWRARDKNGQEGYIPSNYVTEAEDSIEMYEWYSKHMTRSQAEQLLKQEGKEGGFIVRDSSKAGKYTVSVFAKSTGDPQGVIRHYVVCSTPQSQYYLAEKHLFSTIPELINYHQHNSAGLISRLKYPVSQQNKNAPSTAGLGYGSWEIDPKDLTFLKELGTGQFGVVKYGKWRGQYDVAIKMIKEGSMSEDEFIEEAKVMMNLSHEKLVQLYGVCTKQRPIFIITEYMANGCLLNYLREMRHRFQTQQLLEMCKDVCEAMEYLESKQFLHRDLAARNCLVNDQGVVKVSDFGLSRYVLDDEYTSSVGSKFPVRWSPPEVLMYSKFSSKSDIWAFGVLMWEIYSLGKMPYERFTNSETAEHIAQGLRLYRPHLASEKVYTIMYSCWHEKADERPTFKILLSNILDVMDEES
pIC50: −log10 of the molar value.
measure.name: pIC50

compound: C=CC(=O)N1C(c2nc(-c3ccc(C(C)(O)c4ccccc4)cc3)c3c(N)nccn23)CC2CC21 (centres unmarked)
recorded.value: 6.75

compound: C=CC(=O)N1C2C[C@@H](C1c1nc(-c3ccc(C(C)(O)c4ccccc4)cc3)c3c(N)nccn13)N(C(C)=O)C2 (some centres unmarked)
recorded.value: 7.10

compound: CC#CC(=O)N1C2CC[C@@H](C2)C1c1nc(-c2ccc(C(=O)Nc3cc(C(F)(F)F)ccn3)cc2)c2c(N)nccn12 (some centres unmarked)
recorded.value: 8.28

compound: C=CC(=O)N1CC2CCC1(c1nc(-c3ccc(C(=O)Nc4ccccn4)cc3)c3c(N)nccn13)CC2
recorded.value: 7.62

compound: C=CC(=O)N1CC2C[C@H]1C(c1nc(-c3ccc(C(=O)Nc4ccccn4)cc3)c3c(N)nccn13)N2C(C)=O (some centres unmarked)
recorded.value: 6.43

I = C=CC(=O)N1C[C@@H]2C[C@]1(c1nc(-c3ccc(C(=O)Nc4ccccn4)cc3)c3c(N)nccn13)CCO2
II = C=CC(=O)N1C2CN[C@@H](C2)C1c1nc(-c2ccc(C(=O)Nc3cc(Cl)ccn3)cc2)c2c(N)nccn12 (some centres unmarked)
III = C=CC(=O)N1CCC2(CC1)CC(c1nc(-c3ccc(C(=O)Nc4ccccn4)cc3)c3c(N)nccn13)CO2 (centres unmarked)
Request: Arrange the 3 entries by pIC50 so the values rise. Please write the labels in the order that was asked for.
Response: III, I, II

----------
Measured IC50 of individual entries
- Test system: DOHH2 cells
- test.description: Cell proliferation inhibition in vitro, DOHH2 cells by CTG assay
- Format: cell-based
- test.context: Homo sapiens, DOHH-2, 72 hours, read-out: Inhibitions of cell activities IC50 (nM) DOHH2
Write down the numeric answer in nM and omit the unit.

Example results:
compound: CC#CC(=O)N1C2CCC1(c1nc(-c3ccc(C(=O)Nc4ccccn4)cc3)c3c(N)nccn13)COC2 (stereo not shown)
result.units: nM
IC50: 129

compound: CC#CC(=O)N1C2C[C@@H](C1c1nc(-c3ccc(Oc4ccccc4)cc3)c3c(N)nccn13)N(C(C)C)C2 (stereo partly shown)
result.units: nM
IC50: 672

Request: Read the entry C=CC(=O)N1C2CC[C@@H](C2)C1c1nc(-c2ccc(C(=O)Nc3cc(C(F)(F)F)ccn3)cc2)c2c(N)nccn12 (stereo partly shown) and write its reported IC50.
Response: 94.3

----------
- Test system: TMD8 cells
- test.description: Cell proliferation inhibition in vitro, TMD8 cells by CCK-8 method
- Assay type: cell-based
- test.context: Homo sapiens, 72 hours, read-out: Inhibitions of cell activities IC50 (nM) TMD8
measure.name: IC50 (nM)
I only need the number, in nM, no unit after it.

Guide cases for IC50, answers given:
compound: CC#CC(=O)N1CC2(CC2)C[C@H]1c1nc(-c2ccc(Oc3ccccc3)cc2)c2c(N)nccn12 [Example 92]
IC50 [nM]: 7.6

compound: C=CC(=O)N1C[C@H]2[C@@H]([C@H]1c1nc(-c3ccc(C(=O)Nc4cc(Cl)ccn4)cc3)c3c(N)nccn13)C2(C)C [Example 69]
IC50 [nM]: 0.62

compound: CC#CC(=O)N1C[C@H]2[C@@H]([C@H]1c1nc(-c3ccc(C(=O)Nc4ccccn4)cc3)c3c(N)nccn13)C2(C)C [Example 6]
IC50 [nM]: 5.4

compound: C=CC(=O)N1C2C[C@@H](C1c1nc(-c3ccc(C(=O)Nc4cc(C(F)(F)F)ccn4)cc3)c3c(N)nccn13)N(C(C)=O)C2 (some centres unmarked) [Example 56]
IC50 [nM]: 5.9

Request: Fill in IC50 for record C=CC(=O)N1C2CC[C@@H](C2)C1c1nc(-c2ccc(C(=O)Nc3cc(Cl)ccn3)cc2)c2c(N)nccn12 (some centres unmarked) [Example 70]
Response: 6.8

Request: Quick one: give measured IC50 for C=CC(=O)N1C2CN[C@@H](C2)C1c1nc(-c2ccc(C(=O)Nc3ccccn3)cc2)c2c(N)nccn12 (some centres unmarked) [Example 13]
Response: 0.38

Request: Answer with the recorded IC50 for the compound listed here: CC#CC(=O)N1C2CC[C@@H](C2)C1c1nc(-c2ccc(C(=O)Nc3cc(C(F)(F)F)ccn3)cc2)c2c(N)nccn12 (some centres unmarked) [Example 47]
Response: 4.6

Request: Specify measured IC50 for C=CC(=O)N1C2CCC1(c1nc(-c3ccc(C(=O)Nc4cc(C(F)(F)F)ccn4)cc3)c3c(N)nccn13)COC2 (centres unmarked) [Example 48] .
Response: 0.31

Request: Give me measured IC50, please, for this compound: C=CC(=O)N1CC2(CC2)C[C@H]1c1nc(-c2ccccc2C(=O)Nc2ccccn2)c2c(N)nccn12 [Example 125]
Response: 24.9

Request: // Input: CN(C)C/C=C/C(=O)N1CC2CCCC2[C@H]1c1nc(-c2ccc(C(=O)Nc3ccccn3)cc2)c2c(N)nccn12 (some centres unmarked) [Example 113] . Output its IC50 only.
Response: 12.5

Request: Please give measured IC50 of the following entry: CC#CC(=O)N1CC2CCCC2C1c1nc(-c2ccc(C(=O)Nc3cc(C(F)(F)F)ccn3)cc2)c2c(N)nccn12 (centres unmarked) [Example 43]
Response: 2.3

Request: Give IC50 for C=CC(=O)N1C2CCC1(c1nc(-c3ccc(C(=O)Nc4ccccn4)cc3)c3c(N)nccn13)COC2 (centres unmarked) [Example 11]
Response: 1.5

Request: Quote IC50 reported for C=CC(=O)N1C(c2nc(-c3ccc(C(=O)Nc4cc(Cl)ccn4)cc3)c3c(N)nccn23)CC2CC21 (centres unmarked) [Example 71] please.
Response: 8.4

Request: Tell me its IC50 given C=CC(=O)N1C2CC[C@@H](C2)C1c1nc(-c2ccc(C(=O)Nc3cc(C)ccn3)cc2)c2c(N)nccn12 (some centres unmarked) [Example 62] as the entry.
Response: 2.8
